Each entry below carries its reported inhibition.
- Study Target: NAD-dependent protein deacetylase sirtuin-3, mitochondrial (Homo sapiens) (UniProt Q9NTG7)
- Sequence (Q9NTG7 whole entry, the tested form may be a part): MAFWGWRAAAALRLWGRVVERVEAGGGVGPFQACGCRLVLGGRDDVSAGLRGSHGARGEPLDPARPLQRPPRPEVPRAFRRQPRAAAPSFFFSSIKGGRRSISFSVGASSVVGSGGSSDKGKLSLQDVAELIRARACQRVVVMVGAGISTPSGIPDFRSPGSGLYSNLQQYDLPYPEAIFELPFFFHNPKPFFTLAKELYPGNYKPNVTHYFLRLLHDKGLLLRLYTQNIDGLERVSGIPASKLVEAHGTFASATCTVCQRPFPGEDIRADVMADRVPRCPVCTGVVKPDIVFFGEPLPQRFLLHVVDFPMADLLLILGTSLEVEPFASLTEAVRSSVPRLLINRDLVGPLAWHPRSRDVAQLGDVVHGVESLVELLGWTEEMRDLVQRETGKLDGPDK
- Assay: Inhibition of human N-terminal GST-tagged SIRT3 (102 to 399 residues) expressed in Escherichia coli using Ac-Gln-Pro-Lys-Lys(but)-AMC (oxo-12) as substrate at 100 uM by fluorescence assay relative to control
Counter-ions that a name gives are not always drawn. Residues, ends and D or L forms follow the SMILES beside them. *: point of attachment. Cbz = O=C(OCc1ccccc1)*; Tfa = O=C(C(F)(F)F)*; NHiPr = CC(C)N*
Give the quantity in %, number only.

Compound: CCCC(=S)NCCCC[C@H](NC(=O)OCc1ccccc1)C(=O)N[C@@H](Cc1c[nH]c2ccccc12)C(=O)NC(C)C
Unit Descriptor: %
inhibition: 10

Compound: CC(C)NC(=O)[C@H](Cc1c[nH]c2ccccc12)NC(=O)[C@H](CCCCNC(=O)C(F)F)NC(=O)OCc1ccccc1
Unit Descriptor: %
inhibition: 9

Compound: CCC(=S)NCCCC[C@H](NC(=O)OCc1ccccc1)C(=O)N[C@@H](Cc1c[nH]c2ccccc12)C(=O)NC(C)C
Unit Descriptor: %
inhibition: 19

Compound: CCCCNC(=S)NCCCC[C@H](NC(=O)OCc1ccccc1)C(=O)N[C@@H](Cc1c[nH]c2ccccc12)C(=O)NC(C)C
Unit Descriptor: %
inhibition: 2

Next item in the queue.
Enquiry: Notebook: pull reported inhibition for NAD-dependent protein deacetylase sirtuin-3, mitochondrial (Homo sapiens) (UniProt Q9NTG7), entry CC(C)NC(=O)[C@H](Cc1c[nH]c2ccccc12)NC(=O)[C@H](CCCCNC(=O)C(F)(F)F)NC(=O)OCc1ccccc1 (Cbz-Lys(Tfa)-Trp-NHiPr)
Return: 5

###

- Study Target: NAD-dependent protein deacetylase sirtuin-1 (Homo sapiens) (UniProt Q96EB6)
- Assay: Inhibition of human recombinant N-terminal GST-tagged SIRT1 (193 to 741 residues) deacetylation activity in presence of substrate and NAD+ at 15 uM after 60 mins by reversed-phase UPLC-MS analysis relative to control
The source made the active and inactive calls. The rule behind the calls is not given here.

Structure Notation: CCCC(=S)NCCCC[C@H](NC(=O)OCc1ccccc1)C(=O)Nc1ccccc1
Study Target: NAD-dependent protein deacetylase sirtuin-1 (Homo sapiens) (UniProt Q96EB6)
inhibition: inactive
--
Structure Notation: CC(=S)NCCCC[C@H](NC(=O)OCc1ccccc1)C(=O)N[C@@H](Cc1c[nH]c2ccccc12)C(=O)NC(C)C
Study Target: NAD-dependent protein deacetylase sirtuin-1 (Homo sapiens) (UniProt Q96EB6)
inhibition: 7%
--
Structure Notation: CC(=S)NCCCC[C@H](NC(=O)OCc1ccccc1)C(=O)Nc1ccccc1
Study Target: NAD-dependent protein deacetylase sirtuin-1 (Homo sapiens) (UniProt Q96EB6)
inhibition: inactive
--
Structure Notation: CCCC(=S)NCCCC[C@H](NC(=O)OCc1ccccc1)C(=O)N[C@@H](Cc1c[nH]c2ccccc12)C(=O)NC(C)C
Study Target: NAD-dependent protein deacetylase sirtuin-1 (Homo sapiens) (UniProt Q96EB6)
inhibition: inactive

###

- Study Target: NAD-dependent protein deacetylase sirtuin-1 (Homo sapiens, UniProt Q96EB6)
- Assay: Inhibition of human recombinant N-terminal GST-tagged SIRT1 (193 to 741 residues) expressed in Escherichia coli using Ac-Gln-Pro-Lys-Lys(Ac)-AMC (oxo-10) as substrate by fluorescence assay
Strictly below 1000 nM in IC50: met. Otherwise: not met.

# example entries with known answers
Structure Notation: CCCCNC(=S)NCCCC[C@H](NC(=O)OCc1ccccc1)C(=O)N[C@@H](Cc1c[nH]c2ccccc12)C(=O)NC(C)C
Answer Label: not met

Structure Notation: CCCC(=S)NCCCC[C@H](NC(=O)OCc1ccccc1)C(=O)N[C@@H](Cc1c[nH]c2ccccc12)C(=O)NC(C)C
Answer Label: met

Enquiry: Please determine if `CCC(=S)NCCCC[C@H](NC(=O)OCc1ccccc1)C(=O)N[C@@H](Cc1c[nH]c2ccccc12)C(=O)NC(C)C` is below 1000 nM in terms of IC50.
Return: met

Enquiry: Consider the compound `CCNC(=S)NCCCC[C@H](NC(=O)OCc1ccccc1)C(=O)N[C@@H](Cc1c[nH]c2ccccc12)C(=O)NC(C)C` . Is its IC50 strictly less than 1000 nM?
Return: not met

###

- Study Target: NAD-dependent protein deacetylase sirtuin-1 (Homo sapiens)
- Sequence (whole entry): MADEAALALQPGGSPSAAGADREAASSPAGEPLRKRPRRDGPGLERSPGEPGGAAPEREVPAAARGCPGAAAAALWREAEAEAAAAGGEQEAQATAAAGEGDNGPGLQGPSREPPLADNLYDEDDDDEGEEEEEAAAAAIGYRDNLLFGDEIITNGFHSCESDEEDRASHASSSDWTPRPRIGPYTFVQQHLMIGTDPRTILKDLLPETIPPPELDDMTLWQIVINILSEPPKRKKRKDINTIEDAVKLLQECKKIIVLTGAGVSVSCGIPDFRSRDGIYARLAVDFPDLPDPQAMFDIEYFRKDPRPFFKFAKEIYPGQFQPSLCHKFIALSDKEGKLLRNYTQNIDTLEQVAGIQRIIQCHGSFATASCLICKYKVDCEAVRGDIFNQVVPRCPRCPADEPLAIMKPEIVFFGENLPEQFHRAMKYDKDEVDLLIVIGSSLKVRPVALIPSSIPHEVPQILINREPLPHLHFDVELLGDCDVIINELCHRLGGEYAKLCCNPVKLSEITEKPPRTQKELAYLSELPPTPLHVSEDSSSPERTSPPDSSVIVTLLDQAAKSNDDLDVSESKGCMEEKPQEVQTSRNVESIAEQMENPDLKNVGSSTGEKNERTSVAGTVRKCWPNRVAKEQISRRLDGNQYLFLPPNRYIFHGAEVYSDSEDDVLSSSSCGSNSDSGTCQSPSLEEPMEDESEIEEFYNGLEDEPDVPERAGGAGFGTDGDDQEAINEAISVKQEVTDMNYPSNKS
- Assay: Inhibition of human N-terminal GST-tagged SIRT1 (193 to 741 residues) expressed in Escherichia coli preincubated with NAD+ for 30 mins using Ac-Gln-Pro-Lys-Lys(Ac)-AMC (oxo-10) as substrate at 1 to 100 uM measured after 90 mins by fluorescence assay
- Measurement Conditions: dose microM 1-100, time 120.0 min
Active and inactive are the calls of the source. The calls are words filed in the database; no cut-off is given here.
Bench note: report the call from active, inactive

Compound: CCNC(=S)NCCCC[C@H](NC(=O)OCc1ccccc1)C(=O)N[C@@H](Cc1c[nH]c2ccccc12)C(=O)NC(C)C
Answer Label: active

Enquiry: Could you check what this test reported for `CCCC(=S)NCCCC[C@H](NC(=O)OCc1ccccc1)C(=O)N[C@@H](Cc1c[nH]c2ccccc12)C(=O)NC(C)C` ?
Return: active

Enquiry: Kindly provide the recorded test outcome for the following compound: `CCC(=S)NCCCC[C@H](NC(=O)OCc1ccccc1)C(=O)N[C@@H](Cc1c[nH]c2ccccc12)C(=O)NC(C)C`
Return: inactive

Enquiry: Status in this test for NC(=O)C1CCCc2c1[nH]c1ccc(Cl)cc21 (centres undefined) ?
Return: inactive
